testProtocol: Kinetic solubility of compound in PBS at pH 7.4 incubated for 24 hrs by HPLC analysis
Type: physicochemical
studyConditions: buffer, pH 7.4, 24 h
Binned Kinetic_solubility; ranges: b0 = under 2 µg/mL, b1 = from 2 µg/mL up to 40 µg/mL, b2 = 40 µg/mL and over

Reference set (4 entries):
structureAsSmiles: CN[C@@H]1CCCN(c2ccc(Nc3cc(NC4CC4)n4ncc(C#N)c4n3)cc2-n2cnnc2)C1
cat: b2
//
structureAsSmiles: N#Cc1cnn2c(NC3CC3)cc(Nc3cc(-n4cnnc4)ccc3F)nc12
cat: b0
//
structureAsSmiles: N#Cc1cnn2c(NC3CC3)cc(Nc3ccc(F)c(-n4cnnc4)c3)nc12
cat: b0
//
structureAsSmiles: CN[C@H]1CCCN(c2ccc(Nc3cc(NC4CC4)n4ncc(C#N)c4n3)cc2-n2cnnc2)C1
cat: b2

Turning to the following compound.
# bin lookup: classify `CN(CCO)c1cc(F)c(Nc2cc(NC3CC3)n3ncc(C#N)c3n2)cc1-n1cnnc1` by its Kinetic_solubility b1

---

Attribute: IC50
measuredTarget: Casein kinase II subunit alpha' (Homo sapiens, UniProt P19784)
Sequence (P19784 whole entry, the tested form may be a part): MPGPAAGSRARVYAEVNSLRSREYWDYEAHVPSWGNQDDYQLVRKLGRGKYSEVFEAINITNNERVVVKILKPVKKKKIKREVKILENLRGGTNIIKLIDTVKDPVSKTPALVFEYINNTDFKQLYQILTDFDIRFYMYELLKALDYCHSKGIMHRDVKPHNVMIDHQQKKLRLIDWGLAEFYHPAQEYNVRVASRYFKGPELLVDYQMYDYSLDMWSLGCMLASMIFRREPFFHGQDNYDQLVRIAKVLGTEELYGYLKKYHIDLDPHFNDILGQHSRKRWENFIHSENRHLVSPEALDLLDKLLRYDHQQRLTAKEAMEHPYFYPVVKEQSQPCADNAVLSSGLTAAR
testProtocol: Inhibition of NLuc-fused CSNK2A2 (unknown origin) expressed in HEK293 cells incubated for 2 hrs by NanoBRET assay
Type: cell-based
Reply numerically in nM, unit not repeated.

Reading of IC50 for `N#Cc1cnn2c(NC3CC3)cc(Nc3ccc(N4CC[C@H](N)C4)c(-n4cnnc4)c3)nc12` with Casein kinase II subunit alpha' (Homo sapiens, UniProt P19784): 158

Reading of IC50 for C[S+]([O-])Cc1cccc(Nc2cc(NC3CC3)n3ncc(C#N)c3n2)c1 (configuration not stated) with Casein kinase II subunit alpha' (Homo sapiens, UniProt P19784): 39.8

Reading of IC50 for `CCN(CC)CCN(C)c1ccc(Nc2cc(NC3CC3)n3ncc(C#N)c3n2)cc1-n1cnnc1` with Casein kinase II subunit alpha' (Homo sapiens, UniProt P19784): 100

Reading of IC50 for `CN(CCO)c1ccc(Nc2cc(NC3CC3)n3ncc(C#N)c3n2)cc1-n1cnnc1` with Casein kinase II subunit alpha' (Homo sapiens, UniProt P19784): 126

Reading of IC50 for `CN(C)CCn1ccc(Nc2cc(Nc3cccc(-n4cnnc4)c3)nc3c(C#N)cnn23)n1` with Casein kinase II subunit alpha' (Homo sapiens, UniProt P19784): 31.6

Reading of IC50 for `N#Cc1cnn2c(NC3CC3)cc(Nc3cccc(-n4cnnc4)c3)nc12` with Casein kinase II subunit alpha' (Homo sapiens, UniProt P19784): 3.98

Reading of IC50 for `N#Cc1cnn2c(NC3CC3)cc(Nc3cccc(CCO)c3)nc12` with Casein kinase II subunit alpha' (Homo sapiens, UniProt P19784): 631

Reading of IC50 for `CCN(CCN)c1cc(F)c(Nc2cc(NC3CC3)n3ncc(C#N)c3n2)cc1-n1cnnc1` with Casein kinase II subunit alpha' (Homo sapiens, UniProt P19784): 501

Reading of IC50 for `CN(CCN)c1cc(F)c(Nc2cc(NC3CC3)n3ncc(C#N)c3n2)cc1-n1cnnc1` with Casein kinase II subunit alpha' (Homo sapiens, UniProt P19784): 1000

Reading of IC50 for `N#Cc1cnn2c(NC3CC3)cc(Nc3cc(-n4cnnc4)ccn3)nc12` with Casein kinase II subunit alpha' (Homo sapiens, UniProt P19784): 10

Reading of IC50 for `CN(CCN)c1ccc(Nc2cc(NC3CC3)n3ncc(C#N)c3n2)cc1-n1cnnc1` with Casein kinase II subunit alpha' (Homo sapiens, UniProt P19784): 251

Reading of IC50 for `N#Cc1cnn2c(NC3CC3)cc(Nc3cccc(-c4ncns4)c3)nc12` with Casein kinase II subunit alpha' (Homo sapiens, UniProt P19784): 50.1

Reading of IC50 for `N#Cc1cnn2c(NC3CCC3)cc(Nc3cccc(-n4cnnc4)c3)nc12` with Casein kinase II subunit alpha' (Homo sapiens, UniProt P19784): 7.94

Reading of IC50 for `C[C@H](N)CN(C)c1ccc(Nc2cc(NC3CC3)n3ncc(C#N)c3n2)cc1-n1cnnc1` with Casein kinase II subunit alpha' (Homo sapiens, UniProt P19784): 316

Reading of IC50 for `N#Cc1cnn2c(Nc3ccn(CCN4CCCC4)n3)cc(Nc3cccc(-n4cnnc4)c3)nc12` with Casein kinase II subunit alpha' (Homo sapiens, UniProt P19784): 25.1
